Tested on: HEK-293T
Test: Multiplex assay against HEK293T
Format: toxicity, cell-based
Conditions: human, 48 h, 10 µM, compound concentration 10 uM, replicate 2
Endpoint name: Population Membrane Permeable-Phenotype (%)
Answers are plain numbers, in %.

Some compounds with recorded Population Membrane Permeable-Phenotype (%):
compound="Cc1ccc(C(C)(O)c2nc3ccccc3s2)c(C)c1 (stereo not drawn)" recorded_number=1
compound=C[C@H](NC(=O)c1c(C(F)F)nn(C)c1Oc1cccc(C(F)(F)F)c1)c1ccc(C(=O)O)cc1 recorded_number=0
compound=CCCC(CCC)C(=O)O recorded_number=2
compound=O=C(NCCO)c1cccc(-c2cc(Nc3ccc(OC(F)(F)F)cc3)ncn2)c1 recorded_number=0
compound=CC[C@H]1OC(=O)[C@H](C)[C@@H](O[C@H]2C[C@@](C)(OC)[C@@H](O)[C@H](C)O2)[C@H](C)[C@@H](O[C@@H]2O[C@H](C)C[C@H](N(C)C)[C@H]2O)[C@@]2(C)CC(C)=C(O2)[C@H](C)[C@@H](O)[C@]1(C)O recorded_number=0
compound="COc1ccc2c(c1)C(C(=O)N(Cc1ccc(N(C)C)cc1)c1ccc(C(C)C)cc1)CCC2.Cl (stereo not drawn)" recorded_number=2
compound=N[C@@]1(C(=O)O)CO[C@H]2[C@H](C(=O)O)[C@H]21 recorded_number=0
compound=CC(C)(C)c1ccc(S(=O)(=O)Nc2ccc(Cl)cc2C(=O)c2cc[n+]([O-])cc2)cc1 recorded_number=1
compound=CN1CCN(c2nc3cc(C(F)(F)F)ccc3n3cccc23)CC1.O=C(O)/C=C\C(=O)O.O=C(O)/C=C\C(=O)O recorded_number=0
compound=CCOc1c2c(c(OCC)c3ncccc13)CN(c1ccc(CS(=O)(=O)NC(=O)Cc3ccccc3OC)cc1C)C2=O recorded_number=0

# batch size: 3; output Population Membrane Permeable-Phenotype (%) per entry
1. CN(C)CCCc1cc(C(=O)Nc2ccc(-c3ccncc3)cc2)ccc1O.Cl.Cl
2. C[C@H]1[C@H]2CC[C@H]3[C@@H]4CC=C5C[C@@H](N(C)C)CC[C@]5(C)[C@H]4CC[C@]23CN1C
3. CCCn1c(=O)c2[nH]c(C3CCCC3)nc2n(CCC)c1=O

(A)
1. 0
2. 0
3. 0
